Measured IC50, listed per entry for reference.
test system: Plasmodium falciparum; assay: Antimalarial activity against chloroquine-susceptible Plasmodium falciparum 3D7 after 72 hrs by SYBR Green-I based fluorescence assay; format: functional, organism-based; details: 3D7, 72 h
Hi! Could you send only the number? It should be in nM, unit omitted.

// below: answered compounds
Record O=C(/C(=C/c1ccc(Cl)cc1Cl)Oc1ccc(/C=N/Nc2ccnc3cc(Cl)ccc23)cc1)c1ccc(Cl)cc1 , field IC50: 295

response.value for COc1cc(/C=C(\Oc2ccc(/C=N/Nc3ccnc4cc(Cl)ccc34)cc2)C(=O)c2ccc(Cl)cc2)cc(OC)c1OC (field: IC50) = 95.3

# compound COc1ccc(/C=C(\Oc2ccc(/C=N/Nc3ccnc4cc(Cl)ccc34)cc2)C(=O)c2ccc(Cl)cc2)cc1 ; its IC50 = 48.1

Then this compound:
// recorded IC50 for COc1cc(OC)c(OC)cc1/C=C(\Oc1ccc(/C=N/Nc2ccnc3cc(Cl)ccc23)cc1)C(=O)c1ccc(Cl)cc1 : 90.5
